- target-system: Nicotinamide phosphoribosyltransferase (Homo sapiens)
- Sequence (P43490 whole entry, looked up): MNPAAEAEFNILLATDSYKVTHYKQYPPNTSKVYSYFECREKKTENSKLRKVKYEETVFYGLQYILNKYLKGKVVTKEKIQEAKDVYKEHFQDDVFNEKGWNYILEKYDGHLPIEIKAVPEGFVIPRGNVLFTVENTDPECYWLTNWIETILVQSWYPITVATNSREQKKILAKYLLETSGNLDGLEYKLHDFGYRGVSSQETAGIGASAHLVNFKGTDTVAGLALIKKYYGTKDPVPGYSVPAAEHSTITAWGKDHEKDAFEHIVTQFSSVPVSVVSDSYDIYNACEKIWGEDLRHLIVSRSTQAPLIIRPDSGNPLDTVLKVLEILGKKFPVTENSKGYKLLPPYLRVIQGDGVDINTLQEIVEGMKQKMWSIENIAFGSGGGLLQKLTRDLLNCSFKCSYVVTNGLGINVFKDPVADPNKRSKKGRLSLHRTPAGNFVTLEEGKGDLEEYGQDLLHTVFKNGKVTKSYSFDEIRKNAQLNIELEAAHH
- protocol-text: Inhibition of Nampt activity in H2O2-induced DNA damage in human MCF10A cells stably transfected with PIK3CA (H1047R) assessed as loss of PARP activity
- Format: cell-based
- conditions: MCF-10A
Label 1 (yes) when inhibitory concentration is at or above 0.009 µM; anything below gets 0 (no).

Hello, I need to know if CC(C)=CCN(Cc1ccccc1Cl)c1ccc(C(=O)NCc2cccnc2)cc1 has measured inhibitory concentration not below 0.009 µM. Thanks!
0 (no)

Hello, I need to know if CC(C)=CCN(Cc1ccc2nc(C)n(C)c(=O)c2c1)c1ccc(C(=O)NCc2nc3ccccc3[nH]2)cc1 has measured inhibitory concentration not below 0.009 µM. Thanks!
1 (yes)

Hello, I need to know if C#CCN(Cc1ccc2nc(C)n(C)c(=O)c2c1)c1ccc(C(=O)NCc2nc3ccccc3[nH]2)cc1 has measured inhibitory concentration not below 0.009 µM. Thanks!
1 (yes)

Hello, I need to know if O=C(NCc1cccnc1)c1ccc(N(Cc2ccccc2)Cc2ccccc2Cl)cc1 has measured inhibitory concentration not below 0.009 µM. Thanks!
1 (yes)

Hello, I need to know if Cc1nc2ccc(CN(C(=O)C3CC3)c3ccc(C(=O)NCc4cccnc4)cc3)cc2c(=O)n1C has measured inhibitory concentration not below 0.009 µM. Thanks!
1 (yes)

Hello, I need to know if CC(C)CCN(Cc1ccccc1Cl)c1ccc(C(=O)NCc2cccnc2)cc1 has measured inhibitory concentration not below 0.009 µM. Thanks!
0 (no)

Hello, I need to know if C#CCN(Cc1ccc2nc(C)n(C)c(=O)c2c1)c1ccc(C(=O)NCc2cccnc2)cc1 has measured inhibitory concentration not below 0.009 µM. Thanks!
1 (yes)

Hello, I need to know if CC(C)=CC(=O)N(Cc1cc2c(=O)n(C)cnc2cc1Cl)c1ccc(C(=O)NCc2cccnc2)cc1 has measured inhibitory concentration not below 0.009 µM. Thanks!
1 (yes)

Hello, I need to know if C#CCN(Cc1ccc2nc(C)n(C)c(=O)c2c1)c1ccc(C(=O)NCc2ccc(F)cc2F)cc1 has measured inhibitory concentration not below 0.009 µM. Thanks!
1 (yes)
